# Test system: DU-145 prostate
# ASSAY_TEXT: NCI tumour cell line growth inhibition, 48 h
Exercise: for every item that follows, state its recorded TGI.
Unit µM implied. Number only.

// query Check the records and state TGI for CCOc1cc(-c2ccc[nH]2)[nH]c1/C=C1\N=C(C)C(C(=O)OC)=C1C
// result 1.56

// query Check the records and state TGI for COc1cccc(C2NC(=S)NC(C)=C2C(=O)Nc2ccc(Cl)c(Cl)c2)c1 (stereo not given)
// result 12

// query Check the records and state TGI for C=[CH][Sn]([CH]=C)([O]c1cccc2cccnc12)[O]c1cccc2cccnc12
// result 23.2

// query Check the records and state TGI for CO[C@@]12[C@@H]3NC3CN1C1=C(C(=O)C(N)=C(C)C1=O)[C@@H]2COC(N)=O (stereo not given in full)
// result 11.9

// query Check the records and state TGI for Cc1ccc(S(=O)(=O)N(CC(O)COc2ccccc2)c2ccc(F)cc2F)cc1 (stereo not given)
// result 46.9

// query Check the records and state TGI for O=C(Cc1csc2nc(-c3ccc(Br)cc3)cn12)N/N=C/c1ccc(O)cc1
// result 87.4
